Measured values drawn from ChEMBL document CHEMBL2311414 for this set.

- System: KB
- experiment_description: Cytotoxicity against human KB cells after 48 hrs by MTT assay
- Assay type: functional, cell-based
assay_metric: IC50 (µM)
Provide only the numeric value, understood in µM.

Task: Find the recorded IC50 belonging to COc1cc(/C=C2\CC/C(=C\c3ccc(OCCCCN4CCCCCC4)c(OC)c3)C2=O)ccc1OCCCCN1CCCCCC1 and report it.
Result: 2.25

Task: Request the reported IC50 associated with COc1cc(/C=C2\CC/C(=C\c3ccc(OCCCN(C)C)c(OC)c3)C2=O)ccc1OCCCN(C)C
Result: 0.2

Task: Returns the measured IC50 for the input molecule. Input: COc1cc(/C=C2\CC/C(=C\c3ccc(OCCCCN4CCOCC4)c(OC)c3)C2=O)ccc1OCCCCN1CCOCC1
Result: 0.62

Task: Can you look up the measured IC50 of COc1cccc2c1C(=O)c1c(O)c3c(c(O)c1C2=O)C[C@@](O)(C(=O)CO)C[C@@H]3O[C@H]1C[C@H](N)[C@H](O)[C@H](C)O1 for me?
Result: 0.33

Task: Item COc1cc(/C=C2\CC/C(=C\c3ccc(OCCN4CCCCC4)c(OC)c3)C2=O)ccc1OCCN1CCCCC1 has what recorded IC50?
Result: 4.4

Task: # input molecule: CN(C)CCCCOc1ccc(/C=C2\CC/C(=C\c3ccc(OCCCCN(C)C)cc3)C2=O)cc1 ; wanted: its IC50
Result: 1.65

Task: Query: IC50; subject: O=C1/C(=C/c2ccc(OCCCCN3CCCCC3)cc2)CCC/C1=C\c1ccc(OCCCCN2CCCCC2)cc1
Result: 2.54

Task: I am curious: what IC50 value has been reported for COc1cc(/C=C2\CC/C(=C\c3ccc(OCCCCN4CCCCC4)c(OC)c3)C2=O)ccc1OCCCCN1CCCCC1 ?
Result: 0.55

Task: Data request, read-out IC50, for COc1cc(/C=C2\CC/C(=C\c3ccc(OCCn4ccnc4C)c(OC)c3)C2=O)ccc1OCCn1ccnc1C
Result: 3.4

Task: # get_value(readout='IC50', item= COc1cc(/C=C2\CCC/C(=C\c3ccc(OCCCN4CCCCC4)c(OC)c3)C2=O)ccc1OCCCN1CCCCC1 )
Result: 1.65

Task: Query (molecule): COc1cc(/C=C2\CC/C(=C\c3ccc(OCCCn4ccnc4C)c(OC)c3)C2=O)ccc1OCCCn1ccnc1C ; field requested: IC50
Result: 1.99

* * *

- experiment_description: Selectivity index, ratio of IC50 for african green monkey Vero cells to IC50 for chloroquine-sensitive Plasmodium falciparum D6
- Type: toxicity, cell-based
- reported_conditions: read-out: Ratio IC50
assay_metric: selectivity ratio

Task: Reported selectivity ratio, compound COc1cc(/C=C2\CC/C(=C\c3ccc(OCCn4ccnc4C)c(OC)c3)C2=O)ccc1OCCn1ccnc1C : ____
Result: > 6.5

Task: Given COc1cc(/C=C2\CC/C(=C\c3ccc(OCCn4ccnc4)c(OC)c3)C2=O)ccc1OCCn1ccnc1 , state its recorded selectivity ratio.
Result: > 4

Task: Which selectivity ratio value is on record for O=C1/C(=C/c2ccc(OCCn3ccnc3)cc2)CC/C1=C\c1ccc(OCCn2ccnc2)cc1 ?
Result: > 21.6

Task: Which selectivity ratio value belongs to COc1cc(/C=C2\CC/C(=C\c3ccc(OCCCn4ccnc4C)c(OC)c3)C2=O)ccc1OCCCn1ccnc1C ?
Result: > 4

Task: Item COc1cc(/C=C2\CC/C(=C\c3ccc(OCCCCN4CCOCC4)c(OC)c3)C2=O)ccc1OCCCCN1CCOCC1 has what recorded selectivity ratio?
Result: > 10.8
